# run.description: Lung/plasma distribution of norketotifen in rats
# Type: in vivo, SPD rats
# measurement.setup: male, SPD, rat, lung/plasma, oral, 20 mg/kg/day, Dose Day 7; read-out: Lung/Plasma Ratio in Rats
parameter: Kp
Respond with the number and no other words.

What value of Kp has been reported for the following compound? O=C1Cc2ccccc2C(=C2CCNCC2)c2ccsc21 (racemic)
92

---

# run.description: Water solubility
# Format: physicochemical
# measurement.setup: water
parameter: solubility

What value of solubility has been reported for the following compound? O=C1Cc2ccccc2C(=C2CCNCC2)c2ccsc21 (racemic) [norketotifen]
~20 mg/mL

---

# run.description: Lung/plasma distribution of norketotifen in dogs
# Assay type: in vivo, Beagle dogs
# measurement.setup: female, Beagle, dog, lung/plasma, oral, 11.46 mg/kg/day, dog, animal 002, Day 4; read-out: Lung / Plasma Ratio in Dogs
parameter: Kp

What value of Kp has been reported for the following compound? O=C1Cc2ccccc2C(=C2CCNCC2)c2ccsc21 (racemic) [norketotifen]
48.2

---

# run.description: Lung/plasma distribution of norketotifen in rats
# Assay type: in vivo, SPD rats
# measurement.setup: male, SPD, rat, lung/plasma, po, 20 mg/kg/day, mean of the four study days, oral dosing; read-out: Lung/Plasma Ratio in Rats, Mean ± SEM
parameter: Kp
Respond with the number and no other words.

What value of Kp has been reported for the following compound? O=C1Cc2ccccc2C(=C2CCNCC2)c2ccsc21 (racemic) [norketotifen]
103

---

# run.description: Lung/plasma distribution of norketotifen in dogs
# Type: in vivo, Beagle dogs
# measurement.setup: female, Beagle, dog, lung/plasma, oral, 11.46 mg/kg/day, dog, animal 003, Day 4; read-out: Lung / Plasma Ratio in Dogs
parameter: Kp
Respond with the number and no other words.

What value of Kp has been reported for the following molecule? O=C1Cc2ccccc2C(=C2CCNCC2)c2ccsc21 (racemic)
83.3

---

# run.description: Plasma concentration after sc infusion (follow-up study)
# Type: in vivo
# measurement.setup: Sprague-Dawley, rat, 1 mg/kg/day, after sc infusion of RS-norketotifen for 5 days, rats
parameter: concentration at 5 days (ng/mL)
API: value field is a number in ng/mL; no unit string.

What value of concentration at 5 days has been reported for the following compound? O=C1Cc2ccccc2C(=C2CCNCC2)c2ccsc21 (racemic) [norketotifen]
4

---

# run.description: Lung/plasma distribution of norketotifen in rats
# Format: in vivo, SPD rats
# measurement.setup: male, SPD, rat, lung/plasma, oral, 20 mg/kg/day, Last dose, Day 10; read-out: Lung/Plasma Ratio in Rats
parameter: Kp
Respond with the number and no other words.

What value of Kp has been reported for the following compound? O=C1Cc2ccccc2C(=C2CCNCC2)c2ccsc21 (racemic) [norketotifen]
79
